Experiment: chemical genetic growth profiling, strain panel (AID 1159580);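 also: tested at 20 µM; growth read once vehicle control cultures reached saturation at 30 °C; 1 = growth at the plate median or of vehicle wells; lower values mean less growth of the strain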
Conditions: S. cerevisiae deletion strains, growth OD, locus YOR080W, strain dia2, stronger effect = lower value
The whole screen tested about 5,500 compounds, of which about 2,000 (36%) were called active. Inconclusive results (about 18%) are left out. This is one part of the list.

{"COMPOUND": "Cc1[nH]c2ccccc2c1CN(C)C", "normalized growth": 1.03}
{"COMPOUND": "CCC(C)C(=O)O[C@@H]1C[C@@]2(C)[C@H](c3ccoc3)OC(=O)CC23OC2(C)O[C@]14[C@]1(C)[C@@H](CC(=O)OC)C5(C)CC1(O)[C@](O)(C5OC(=O)C1(C)OC1C)[C@@H](OC(C)=O)[C@]34O2 (some centres undefined)", "normalized growth": 0.985}
{"COMPOUND": "COC(=O)C[C@H]1C2(C)CC34OC5(C)O[C@@]6([C@H](OC(C)=O)C(OC(C)=O)[C@]7(C)C(/C(=C(/O)C(C)C)C(=O)O[C@H]7c7ccoc7)[C@@]6(O5)[C@H](OC(C)=O)[C@@]3(O)C2OC(=O)C(C)C)[C@]14C (some centres undefined)", "normalized growth": 0.977}
{"COMPOUND": "O=S(=O)(O)c1cc(N=C=S)ccc1/C=C/c1ccc(N=C=S)cc1S(=O)(=O)O", "normalized growth": 1.04}
{"COMPOUND": "COc1ccc(C(c2ccc(OC)cc2)C(Cl)(Cl)Cl)cc1", "normalized growth": 1.01}
{"COMPOUND": "CN1C2CCC1CC(OC(c1ccccc1)c1ccccc1)C2 (centres undefined)", "normalized growth": 0.989}
{"COMPOUND": "CN(C)CCOC(c1ccc(Cl)cc1)c1ccccn1 (centres undefined)", "normalized growth": 1.02}
{"COMPOUND": "O=C(O)/C=C/c1ccc(O)c(O)c1", "normalized growth": 1}
{"COMPOUND": "OCC(O)CN1CCN(c2ccccc2)CC1 (centres undefined)", "normalized growth": 0.988}
{"COMPOUND": "COc1ccc(C(CN(C)C)C2(O)CCCCC2)cc1 (centres undefined)", "normalized growth": 0.973}
{"COMPOUND": "CC(=O)O[C@H]1C[C@@H](OC(C)=O)C(C)(C)C2CC(=O)[C@]3(C)C(CC[C@@]4(C)[C@H](C(=O)O)OC(=O)C5OC543)[C@]21C (some centres undefined)", "normalized growth": 0.983}
{"COMPOUND": "C[C@@H]1CC(Cl)CC[C@H]1C(=O)OC(C)(C)C (some centres undefined)", "normalized growth": 0.98}
{"COMPOUND": "NCCCS(=O)(=O)O", "normalized growth": 1.03}
{"COMPOUND": "CO/N=C1/CN(c2nc3c(cc2F)c(=O)c(C(=O)O)cn3C2CC2)CC1CN (centres undefined)", "normalized growth": 0.974}
{"COMPOUND": "CCC(C)C(=O)O[C@@H]1C[C@@]2(C)[C@H](c3ccoc3)OC(=O)CC23OC2(C)OC34[C@H](OC(=O)C(C)C)[C@@]3(O)[C@@H](OC(=O)C5(C)OC5C)[C@@]5(C)C[C@]3(O)[C@@](C)([C@H]5CC(=O)OC)C14O2 (some centres undefined)", "normalized growth": 1.01}
{"COMPOUND": "NCCS(=O)(=O)O", "normalized growth": 0.978}
{"COMPOUND": "O=C(/C=C/c1ccc(O)c(O)c1)OCCc1ccccc1", "normalized growth": 0.961}
{"COMPOUND": "CN1C2CCC1CC(OC(c1ccccc1)c1ccccc1N)C2 (centres undefined)", "normalized growth": 0.985}
{"COMPOUND": "O=S(=O)(O)CCS", "normalized growth": 0.964}

// provenance: PubChem BioAssay AID1159580
